The reported numbers originate from PubChem BioAssay (NCI).

Assay: NCI Yeast Anticancer Drug Screen. Data for the mec2-1 strain (AID 157)
Settings: S. cerevisiae mec2-1 strain, at 50.0 µM, stronger effect = higher value
The panel holds about 79,000 compounds, 15% with a hit somewhere; the sample as a whole holds those more often.
Please go through the items and note down their growth inhibition.
Give bare numbers, in %.

[[record]]
compound = "Cc1ccc2nc(C)cn2c1"
reported = 7.7


Give one value of growth inhibition per listed compound.
1. CC(=O)NC(N)=O
2. c1cc2c3c(cccc3c1)N=S=N2
3. CCOC(=O)C(C(=O)OCC)=c1sc(=C(C(=O)OCC)C(=O)OCC)s1
4. O=S(=O)(O)C(O)c1ccccc1 (configuration not stated)
5. O=C(c1nc2ccc([N+](=O)[O-])cc2[nH]c1=O)C(O)c1ccc([N+](=O)[O-])cc1 (configuration not stated)
6. On1ccc(N2CCOCC2)cc1=NC1CCCCC1

[2.2, -7.45, 7.8, -2.85, -6.2, 14.9]

Give one value of growth inhibition per listed compound.
1. CCN1C(NN)=NS(=O)(=O)c2ccccc21
2. CN(C)c1ccc(/C=C/C(=O)/C=C/c2ccc(N(C)C)cc2)cc1
3. C=C1C(=O)OC2C1C(=O)C/C(C)=C/CCC1(C)OC21 (configuration not stated)

[-7.55, -2, 52]

Give one value of growth inhibition per listed compound.
1. c1ccc(/N=C2\c3ccccc3CN2c2ccccn2)nc1
2. CCOC(=O)C(=O)SCC(NC(=O)OCc1ccccc1)C(=O)O (configuration not stated)

1. 3.75
2. -4.95

###

Assay: NCI Yeast Anticancer Drug Screen. Data for the rad50 strain (AID 155);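 further: 0% = growth of vehicle-only cultures of the same strain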
Settings: S. cerevisiae rad50 strain growth inhibition; at 50.0 µM; stronger effect = higher value
Compounds without any hit were thinned out: in the full panel of roughly 79,000, 15% have a hit.
Please go through the items and note down their growth inhibition.
Numbers only, in %.

[[record]]
molecule = "CN(N=O)C(=O)NCCc1ccccc1"
endpoint_label = "growth inhibition"
reported = 13.6


Give one value of growth inhibition per listed molecule.
1. C=C(Cl)C(Cl)(CBr)CCC(Br)C(C)(C)Cl (stereo unspecified)
2. Cc1nc(Nc2ccc([N+](=O)[O-])cc2)sc1C(=O)/C=C/c1ccc(N(C)C)cc1
3. CC(C)OC(=O)NCc1cccs1
4. CCn1c(=O)c2[nH]c(-n3c(Cl)nc4c3c(=O)n(CC)c(=O)n4CC)nc2n(CC)c1=O
5. CC(C)(C)NCC(CN1CCOCC1)C(=O)c1ccccc1 (stereo unspecified)

20.6
5.1
-10.1
31.1
48.5

Give one value of growth inhibition per listed molecule.
1. CSCCCC(N)=O
2. CN(C)c1ccc(S(=O)(=O)c2ccc(N(C)C)c([N+](=O)[O-])c2)cc1[N+](=O)[O-]
3. O=c1c2ccccc2c2ccccc2n1C(c1ccccc1)c1ccccc1
4. O=c1[nH]c2c([N+](=O)[O-])cc(Cl)cc2nc1/C=C(\O)c1ccncc1
5. Cc1c(Cl)cccc1NC(=O)Oc1ccc(F)cc1Cl

1.85
24
-43
42.5
-1.4

###

Assay: NCI Yeast Anticancer Drug Screen. Data for the bub3 strain (AID 167)
Settings: S. cerevisiae bub3 mutant strain, at 50.0 µM, stronger effect = higher value
The panel holds about 79,000 compounds, 15% with a hit somewhere; the sample as a whole holds those more often.
Please go through the items and note down their growth inhibition.
Numbers only, in %.

Reference set, count: 5
[[record]]
molecule = "CSc1nc2c(nc(N)n2C2OCC(O)C(O)C2O)c(=O)[nH]1 (stereo not drawn)"
endpoint_label = "growth inhibition"
reported = -5.65

[[record]]
molecule = "COC(=O)C1C2CC3C1C3C2C(=O)OC (stereo not drawn)"
endpoint_label = "growth inhibition"
reported = -14.6

[[record]]
molecule = "C/C(=N/NC(N)=S)c1ccc2ccccc2c1"
endpoint_label = "growth inhibition"
reported = 28.9

[[record]]
molecule = "O=C1NC2C1C1c3ccccc3C2C12CC2 (stereo not drawn)"
endpoint_label = "growth inhibition"
reported = 13.1

[[record]]
molecule = "CC1=C(C(=O)CC(=O)C(=O)Nc2ccc(C)cc2C)Sc2ccccc2N1"
endpoint_label = "growth inhibition"
reported = 6.2


Give one value of growth inhibition per listed molecule.
1. CCN(CC)CCS(=O)(=O)CCS(=O)(=O)CCN(CC)CC
2. Oc1cncc2ccccc12
3. CC1CCC(C(C)(C)NO)C(=O)C1 (stereo not drawn)
4. CSC(C(=O)O)c1cc(-c2c(Cl)cccc2Cl)no1 (stereo not drawn)
5. COC(=O)OC(C#N)c1cccc([N+](=O)[O-])c1 (stereo not drawn)

1. 4.4
2. 1.6
3. -2.1
4. 24.4
5. -3.9

Give one value of growth inhibition per listed molecule.
1. O=[N+]([O-])c1ccc(CN2CCC(C(=S)Nc3ccccc3)=C2c2ccccc2)cc1
2. OCC1OC(O)C(CO)OC1O (stereo not drawn)
3. COc1c(CC=C(C)C)c(O)c(C(CC(C)C)c2c(O)c(CC=C(C)C)c(O)c(C(C)=O)c2O)c(O)c1C(C)=O (stereo not drawn)
4. COC(=O)C(=O)C(C(=O)C=C(C)C)c1nc2n(c1O)C(=N)N=N2 (stereo not drawn)

-1.2
22.2
38.5
13.1

Give one value of growth inhibition per listed molecule.
1. CCCCCCCN(CCCCCCC)CC(O)c1c(OC)c2ccccc2c2ccccc12 (stereo not drawn)
2. O=C(O)CSC1=NNC2(C(=O)N1)c1ccccc1-c1ccccc12

1: 24.9; 2: -3.85
